Test system: MT4
Assay: Cytotoxicity against human MT4 cells assessed as reduction in cell viability after 4 to 5 days by Cell-Titer Glo assay
Format: cell-based
Settings: mt4
OBSERVED_PROPERTY: CC50 (nM)
Please reply with the bare figure in nM and do not write the unit itself.

Can you look up the measured CC50 of CCC(CC)COC(=O)[C@H](C)N[P@](=O)(OC[C@H]1O[C@@](C#N)(c2ccc3c(N)ncnn23)[C@H](O)[C@@H]1O)Oc1ccccc1 for me? 1700

====

Experiment: Half life in human plasma at 2 uM by LC/MS/MS analysis
Format: ADME, cell-free
OBSERVED_PROPERTY: half-life at 2 µM (h)
Return type: number; implicit unit h.

Data request, read-out half-life at 2 µM, for CCC(CC)COC(=O)[C@@H](C)NP(=O)(OC[C@H]1O[C@@](C#N)(c2ccc3c(N)ncnn23)[C@H](O)[C@@H]1O)Oc1ccccc1 (some centres undefined) 26.4

Field request: half-life at 2 µM | item: C[C@H](NP(=O)(OC[C@H]1O[C@@](C#N)(c2ccc3c(N)ncnn23)[C@H](O)[C@@H]1O)Oc1ccccc1)C(=O)OC1CCCC1 (some centres undefined) 26.3

Query: half-life at 2 µM; subject: CCC(CC)OC(=O)[C@H](C)NP(=O)(OC[C@H]1O[C@@](C#N)(c2ccc3c(N)ncnn23)[C@H](O)[C@@H]1O)Oc1ccccc1 (some centres undefined) 14.3

Given the entry C[C@H](NP(=O)(OC[C@H]1O[C@@](C#N)(c2ccc3c(N)ncnn23)[C@H](O)[C@@H]1O)Oc1ccccc1)C(=O)OC1CCC1 (some centres undefined) , report its measured half-life at 2 µM. 13.6

====

Exercise: for every item that follows, state its recorded EC50.
Test system: Human orthopneumovirus
Assay: Antiviral activity against Respiratory syncytial virus A2 infected in human Hep2 cells assessed as reduction of virus-induced cytopathic effect after 4 days by Cell-Titer Glo assay
Type: functional, cell-based
Details: human respiratory syncytial virus, A2, HEp-2, 96 h

Consider the molecule CC(C)OC(=O)[C@H](C)N[P@](=O)(OC[C@H]1O[C@@](C#N)(c2ccc3c(N)ncnn23)[C@](C)(O)[C@@H]1OC(=O)C(C)C)Oc1ccccc1 and give its measured EC50. > 20 µM

If you can, please state the reported EC50 value of C[C@@]1(c2ccc3c(N)ncnn23)O[C@H](CO)[C@@H](O)[C@H]1O . 5.5 µM

Which measured EC50 value corresponds to CCC(CC)COC(=O)[C@H](C)N[P@](=O)(OC[C@H]1O[C@@](C#N)(c2ccc3c(N)ncnn23)[C@H](O)[C@@H]1O)Oc1ccccc1 (mixture of isomers) ? 0.027 µM

Name the recorded EC50 for C#C[C@@]1(c2ccc3c(N)ncnn23)O[C@H](COP(=O)(N[C@@H](C)C(=O)OCC(CC)CC)Oc2ccccc2)[C@@H](O)[C@H]1O (stereo partly drawn) . 1.1 µM

Looking for the measured EC50 of N#C[C@@]1(c2ccc3c(N)ncnn23)O[C@H](CO)[C@@H](O)[C@H]1F , can you help? > 100 µM

Suppose we examine the molecule N#C[C@@]1(n2ccc(N)nc2=O)O[C@H](CO)[C@@H](O)[C@H]1O ; what EC50 value has been reported? 7.3 µM

What does the data say about its EC50? Entry: N#C[C@@]1(n2cnc3c(N)ncnc32)O[C@H](CO)[C@@H](O)[C@H]1O > 100 µM

Any idea what its EC50 is? The molecule is C#C[C@@]1(c2ccc3c(N)ncnn23)O[C@H](CO)[C@@H](O)[C@H]1O > 200 µM
